Reference source for all entries: the NIST ThermoML archive (doi:10.1021/je700096m)

Exercise: state measured mass density for each of the molecules provided.
- Test parameters: 308.15 K; 12100 kPa; Liquid
Answers are plain numbers, in kg/m3.

For each of the molecules below, note its mass density.
1. CCCCCl
2. CC(=O)N(C)C [N,N-dimethylethanamide]
3. CCCCCCCl
4. CN(C)C=O [dimethylformamide]

result:
1: 882.9; 2: 935.3; 3: 875; 4: 942.5

* * *

Provide the recorded mass density for the entries that follow.
- Test parameters: 308.15 K; 2000 kPa; Liquid
Numbers only, in kg/m3.

Compound: CCCCCl
mass density [kg/m3]: 872.1

Compound: CCCCCCCl
mass density [kg/m3]: 866.1

Compound: CC(=O)N(C)C [N,N-dimethylethanamide]
mass density [kg/m3]: 929.1

Count: 2. Required value per item: mass density.
1. CN(C)C=O [dimethylformamide]
2. CCCCCCCCCl

result:
1: 936.2; 2: 862.8
